Provenance of the data: patent US20240109917A1

pIC50 overview
test.target: Tb-labeled inactive PDGFRβ (Homo sapiens (Human))
Sequence (P09619 33-1106): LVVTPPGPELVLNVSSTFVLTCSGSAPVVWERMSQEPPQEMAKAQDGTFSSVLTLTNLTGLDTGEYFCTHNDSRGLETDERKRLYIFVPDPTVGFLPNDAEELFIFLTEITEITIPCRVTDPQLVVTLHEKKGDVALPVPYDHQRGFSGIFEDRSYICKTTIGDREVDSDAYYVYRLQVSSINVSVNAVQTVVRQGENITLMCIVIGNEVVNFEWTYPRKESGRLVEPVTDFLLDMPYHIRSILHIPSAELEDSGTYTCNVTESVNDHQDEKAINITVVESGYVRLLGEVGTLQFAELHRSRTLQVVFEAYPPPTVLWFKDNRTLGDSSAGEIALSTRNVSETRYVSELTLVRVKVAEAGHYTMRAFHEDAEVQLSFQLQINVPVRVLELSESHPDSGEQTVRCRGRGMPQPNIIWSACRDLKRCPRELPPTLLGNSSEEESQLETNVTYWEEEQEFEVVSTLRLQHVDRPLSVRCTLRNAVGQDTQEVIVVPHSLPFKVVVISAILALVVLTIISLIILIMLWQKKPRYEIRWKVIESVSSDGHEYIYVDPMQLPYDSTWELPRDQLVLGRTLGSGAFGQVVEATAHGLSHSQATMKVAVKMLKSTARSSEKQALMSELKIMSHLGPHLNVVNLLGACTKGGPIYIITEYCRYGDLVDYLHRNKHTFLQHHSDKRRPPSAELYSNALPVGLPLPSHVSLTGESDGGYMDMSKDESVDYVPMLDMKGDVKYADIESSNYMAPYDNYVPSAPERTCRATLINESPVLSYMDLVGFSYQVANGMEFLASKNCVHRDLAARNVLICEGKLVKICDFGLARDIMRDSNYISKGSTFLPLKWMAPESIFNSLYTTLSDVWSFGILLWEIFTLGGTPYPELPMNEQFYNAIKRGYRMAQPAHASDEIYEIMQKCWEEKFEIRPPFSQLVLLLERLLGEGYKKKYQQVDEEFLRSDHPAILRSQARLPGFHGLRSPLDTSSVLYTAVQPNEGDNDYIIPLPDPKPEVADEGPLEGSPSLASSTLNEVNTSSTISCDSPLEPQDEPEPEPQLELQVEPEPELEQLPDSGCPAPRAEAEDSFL
protocol: PDGFRβ LanthaScreen Assay
measurement.context: read-out: PDGFR Lantha IC50
pIC50 is a log-scale quantity: -log10 of the concentration expressed in molar.

The cases that follow already have their pIC50 on record.
# compound, test.target, pIC50
records = [
    ("COCCn1cc(-c2cn3ncc(C(=O)Nc4cc(NC(=O)CN5C[C@H]6CC[C@@H]5C6)cnc4C)c3s2)cn1", "Tb-labeled inactive PDGFRβ (Homo sapiens (Human))", 8.04),
    ("Cc1ncc(NC(=O)CN2CC(C)(C)C2)cc1NC(=O)c1cnn2cc(-c3cnn(CC(C)O)c3)sc12 (stereo not shown)", "Tb-labeled inactive PDGFRβ (Homo sapiens (Human))", 8.42),
    ("Cc1ncc(C(=O)NCCN2C3CCC2COC3)cc1NC(=O)c1cnn2cc(-c3cnn(C)c3)sc12", "Tb-labeled inactive PDGFRβ (Homo sapiens (Human))", 8.55),
]

Kindly consider the entry below.
// Input: `Cc1ncc(NC(=O)CN2[C@H](C)COC[C@@H]2C)cc1NC(=O)c1cnn2cc(-c3cnn(C)c3)sc12` . Output its pIC50 only.
7.32
